- Tested on: Guinea Pig Platelets
- procedure.text: In vitro inhibition of collagen-induced platelet aggregation, guinea pig platelet-rich plasma
- Assay type: cell-based
- measurement.context: Cavia porcellus, Platelet, 0.05 h; guinea pig PRP, collagen 1 μg/ml, 3 minutes of contact at 37° C.
Structures can show the parent of a compound that is named as a salt.
observation.type: IC50 (nM)

Worked cases, IC50 given:
# molecule, uom, IC50
measured = [
    ("CCOC(=O)[C@H](CNC(=O)CN1CCN(c2ccc(C(=N)N)cc2)CC1=O)NS(=O)(=O)c1ccc2ccccc2c1 [Example 25, acetate]", "nM", 200),
    ("CCOC(=O)[C@H](CNC(=O)CN1CCN(c2ccc(C(=N)N)cc2)CC1=O)NS(=O)(=O)c1ccc(Cl)cc1 [Example 24, acetate]", "nM", 320),
    ("CCOC(=O)[C@H](CNC(=O)CN1CCN(c2ccc(C(=N)N)cc2)C(=O)C1)NS(=O)(=O)c1ccccc1 [Example 29, acetate]", "nM", 1800),
]

a. Cc1ccc(S(=O)(=O)N[C@@H](CNC(=O)CN2CCN(c3ccc(C(=N)N)cc3)CC2=O)C(=O)O)cc1 [Example 31, hydrochloride]
b. N=C(N)c1ccc(N2CCN(CC(=O)NC[C@H](NS(=O)(=O)c3ccccc3)C(=O)O)C(=O)C2)cc1 [Example 30, hydrochloride]
Qu. Hi! Which is lower in terms of IC50, the first one a or the second one b ? Please indicate the selected item by its label.
Ans. b

* * *

- System: Guinea Pig Platelets
- procedure.text: In vitro inhibition of collagen-induced platelet aggregation, guinea pig platelet-rich plasma
- Type: cell-based
- measurement.context: Cavia porcellus, Platelet, 0.05 h; guinea pig PRP, collagen 1 μg/ml, 3 minutes of contact at 37° C.
observation.type: IC50 (µM)

# molecule, assayed.system, observation.type, endpoint.result
rows = [
    ("CCOC(=O)[C@H](CNC(=O)CN1CCN(c2ccc(C(=N)N)cc2)CC1=O)NC(=O)OCC(C)C [Example 26, acetate]", "Guinea Pig Platelets", "IC50", 0.4),
    ("CCOC(=O)[C@H](CNC(=O)CN1CCN(c2ccc(C(=N)N)cc2)CC1=O)NS(=O)(=O)c1ccccc1 [Example 17, acetate]", "Guinea Pig Platelets", "IC50", 0.11),
    ("CCOC(=O)[C@H](CNC(=O)CN1CCN(c2ccc(C(=N)N)cc2)CC1=O)NS(=O)(=O)c1cccc2c1NCCC2 [Example 19, acetate]", "Guinea Pig Platelets", "IC50", 0.25),
    ("CCOC(=O)[C@H](CNC(=O)CN1CCN(c2ccc(C(=N)N)cc2)CC1=O)NS(=O)(=O)c1cccnc1 [Example 18, diacetate]", "Guinea Pig Platelets", "IC50", 0.91),
]

P. CCOC(=O)[C@H](CNC(=O)CN1CCN(c2ccc(C(=N)N3CCCCC3)cc2)CC1=O)NS(=O)(=O)c1ccc(C)cc1
Q. CCOC(=O)[C@H](CNC(=O)CN1CCN(c2ccc(C(=N)N)cc2)CC1=O)NS(=O)(=O)c1ccc(C)cc1 [Example 23, acetate]
Qu. Returns: the argument ( P or Q ) having the larger IC50. Answer with the label corresponding to your selection.
Ans. P

* * *

- Tested on: Guinea Pig Platelets
- procedure.text: In vitro inhibition of collagen-induced platelet aggregation, guinea pig platelet-rich plasma
- Assay type: cell-based
- measurement.context: guinea pig PRP, collagen 1 μg/ml, 3 minutes of contact at 37° C.
observation.type: IC50 (nM)
Express it in nM; write the number only.

Qu. What does the data say about its IC50? Entry: CCOC(=O)[C@H](CNC(=O)CN1CCN(c2ccc(C(=N)N3CCOCC3)cc2)CC1=O)NS(=O)(=O)c1ccc(C)cc1 [Example 40]
Ans. 1000
